B1: library; a variant is named by its letters at N, in order (parent)
chain: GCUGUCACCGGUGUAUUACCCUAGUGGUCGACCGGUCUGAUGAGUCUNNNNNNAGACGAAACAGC

Variants of: B1
ASSAY_NOTES: FACS-Seq fitted mean relative fluorescence mCherry/BFP without ligand (log10 relative fluorescence); ligand: hypoxanthine (xanthine aptamer); higher = higher reporter protein expression
ASSAY_CONTEXT: HEK293T, ligand present: no
Entries and their measured FACS-Seq fitted mean (log10) follow.
Lab note: jot the number down without any unit.

Observe how each entry below is paired with its result.
SEQUENCE	FACS-Seq fitted mean (log10)
GCUGUCACCGGUGUAUUACCCUAGUGGUCGACCGGUCUGAUGAGUCUGACAGAAGACGAAACAGC	0.441
GCUGUCACCGGUGUAUUACCCUAGUGGUCGACCGGUCUGAUGAGUCUCGUUGGAGACGAAACAGC	0.314

Let us move to another entry and its FACS-Seq fitted mean (log10).
What FACS-Seq fitted mean (log10) value was documented for this variant, GCUGUCACCGGUGUAUUACCCUAGUGGUCGACCGGUCUGAUGAGUCUUAGCGGAGACGAAACAGC ? 0.335
